// cross-source set; read-out = pKi; system = Adenosine receptor A1 (Homo sapiens)
Sequence (P30542 whole entry): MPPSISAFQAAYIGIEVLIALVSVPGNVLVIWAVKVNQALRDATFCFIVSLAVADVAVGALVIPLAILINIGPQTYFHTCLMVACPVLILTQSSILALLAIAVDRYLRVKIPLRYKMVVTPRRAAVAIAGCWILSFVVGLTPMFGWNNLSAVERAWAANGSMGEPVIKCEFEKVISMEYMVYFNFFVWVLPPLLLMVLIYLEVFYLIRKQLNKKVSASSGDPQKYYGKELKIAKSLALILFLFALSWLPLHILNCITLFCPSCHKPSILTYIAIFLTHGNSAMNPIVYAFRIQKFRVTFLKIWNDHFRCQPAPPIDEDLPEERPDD
pKi: −log10 of the molar value.
measured-quantity: pKi

Below: 2 molecules and their reported pKi.
[[record]]
molecule = "O=C(N[C@@H]1[C@@H](O)[C@H](n2cnc3c(NC4CCCC4)ncnc32)O[C@@H]1CO)c1ccc(F)c(Cl)c1"
measured_quantity = "pKi"
value_reported = 6.24

[[record]]
molecule = "CCn1cc2c(nc(NC(=O)Cc3cccc4ccccc34)n3nc(-c4ccco4)nc23)n1"
measured_quantity = "pKi"
value_reported = 6.22


(A) CC(C)(C)CC(=O)Nc1c(F)cc(C(=O)Nc2nccs2)cc1F
(B) O=c1oc2c(O)c(O)ccc2cc1-c1ccsc1
(C) COc1cc(-c2nc3c([nH]2)C2=NC(C)CN2C(=O)N3Cc2ccccc2)n(C)n1 (centres undefined)
(D) Nc1nc2c(cnn2CCCc2ccc(O)cc2)c2nc(-c3ccco3)nn12
[in] List the 4 entries from lowest pKi to highest pKi value. Write the labels in rank order as requested.
[out] B, C, A, D
